Data provenance: patent US6413974B1

- Tested on: MDA-MB-231
- experimental.details: In vitro tumor cell proliferation, MDA-MB-231
- Format: cell-based, human
- protocol.conditions: Homo sapiens, MDA-MB-231, values marked * (mark not explained); read-out: In vitro Tumor Cell Proliferation (IC50, μM) Breast MDA-MB-231
Counter-ions that a name gives are not always drawn.
measured.attribute: IC50 (µM)

Reference set, count: 3
N[C@H]1CC[C@H](Nc2nc(NCCc3ccncc3)c3ncn(C4CCCC4)c3n2)CC1 [Example 31, dihydrochloride]
7.4
NCCCCNc1nc(N[C@H]2CC[C@H](N)CC2)nc2c1ncn2C1CCCC1 [Example 5, dihydrochloride]
2.9
CCCCCNc1nc(N[C@H]2CC[C@H](N)CC2)nc2c1ncn2C1CCCC1 [Example 26, dihydrochloride]
1.2

1: N[C@H]1CC[C@H](Nc2nc(NCCCO)c3ncn(C4CCCC4)c3n2)CC1 [Example 53, dihydrochloride]
2: CCCNc1nc(N[C@H]2CC[C@H](N)CC2)nc2c1ncn2C1CCCC1 [Example 44, dihydrochloride]
3: CCCCNc1nc(N[C@H]2CC[C@H](N)CC2)nc2c1ncn2C(C)C [Example 37, dihydrochloride]
Challenge: hey, can you rank those molecules up there by IC50? biggest number first please Field: ranking. Enter the labels in the order requested.
Response given: 3, 1, 2
(3: 24 µM, 1: 6.7 µM, 2: 0.8 µM)

A: N[C@H]1CC[C@H](Nc2nc(NCCc3ccc(O)cc3)c3ncn(C4CCCC4)c3n2)CC1 [Example 55, dihydrochloride]
B: N[C@H]1CC[C@H](Nc2nc(NNCCO)c3ncn(C4CCCC4)c3n2)CC1 [Example 14, dihydrochloride]
C: CCCCCCNc1nc(N[C@H]2CC[C@H](N)CC2)nc2c1ncn2C1CCCC1 [Example 41, dihydrochloride]
D: N[C@H]1CC[C@H](Nc2nc(NCCc3cccnc3)c3ncn(C4CCCC4)c3n2)CC1 [Example 7, dihydrochloride]
Challenge: Hey, quick one: sort these by IC50, low to high? Field: ranking. Enter the labels in the order requested.
Response given: C, A, D, B

1: N[C@H]1CC[C@H](Nc2nc(NCc3cccs3)c3ncn(C4CCCC4)c3n2)CC1 [Example 17, dihydrochloride]
2: N[C@H]1CC[C@H](Nc2nc(NCCc3c[nH]c4ccccc34)c3ncn(C4CCCC4)c3n2)CC1 [Example 2, dihydrochloride]
Challenge: Endpoint returns whichever of 1 and 2 has the numerically higher IC50. Lab log: write the label of the selected item as the result.
Response given: 2
(2: 6.5 µM, 1: 2.4 µM)

A: N[C@H]1CC[C@H](Nc2nc(NCCCN3CCOCC3)c3ncn(C4CCCC4)c3n2)CC1 [Example 9, dihydrochloride]
B: N[C@H]1CC[C@H](Nc2nc(NCCCc3ccccc3)c3ncn(C4CCCC4)c3n2)CC1 [Example 24, dihydrochloride]
C: N[C@H]1CC[C@H](Nc2nc(NCCCCc3ccccc3)c3ncn(C4CCCC4)c3n2)CC1 [Example 21, dihydrochloride]
D: N[C@H]1CC[C@H](Nc2nc(NCc3ccncc3)c3ncn(C4CCCC4)c3n2)CC1 [Example 8, dihydrochloride]
Challenge: hey, can you rank those molecules up there by IC50? biggest number first please Field: ranking. Enter the labels in the order requested.
Response given: D, A, C, B
